Each recorded value in this set is attributed to ChEMBL document CHEMBL1201862.

test system: UACC-257; assay: NCI tumour cell line growth inhibition, 48 h
Calls of active or inactive are those of the source. Cut-off read from the data, not from the text of the source: active = GI50 up to about 1.1 µM and inactive = higher.
Permitted responses: active, inactive

What classification did O=[N+]([O-])c1ccc(C2=Nc3ccccc3SC(c3ccccc3)C2)cc1 (centres undefined) end up with in this test? inactive

What classification did CC1(C)[C@@H]2C[C@H]1C(Cc1ccccc1C[C@H]1c3cc(-c4ccccn4)ncc3[C@H]3C[C@@H]1C3(C)C)c1cc(-c3ccccn3)ncc12 (some centres undefined) end up with in this test? active

What classification did CCOC(=O)NC(=O)c1cn(CCN2CCN(C(=O)CCCCCCCCCCNc3ncnc4c3ncn4C3OC(CO)C(O)C3O)CC2)c(=O)[nH]c1=O (centres undefined) end up with in this test? inactive

What classification did O=c1c2cc(I)ccc2nc(SCc2nnco2)n1Cc1ccccc1 end up with in this test? inactive

What classification did CC(CCC(=O)O)C(=O)O (centres undefined) end up with in this test? inactive

What classification did O=C1N/C(=N/N=C/c2cccs2)N/C1=C\c1ccco1 end up with in this test? inactive

What classification did O=C(C1=CCC2(CC1)OCCO2)N(Cc1ccccc1)c1ccccc1I end up with in this test? inactive

What classification did CC(C)=CCC[C@@H](C)/C=C/C=C(\C)C(=O)CC[C@@H]1CC[N@+]2(C)CCCC[C@H]12 end up with in this test? inactive

What classification did [O-][n+]1cc(SCc2ccccc2)ncc1SCc1ccccc1 end up with in this test? inactive
